src = PubChem BioAssay

- test: 384-well plate pilot, post-Golgi transport modulator project, inhibition of yeast transport mutant growth (AID 636)
- condition notes: absorbance 615 nm, about 18 h, stronger effect = higher value
Activity calls are given as the source filed them. No stated cut-off is given here; in the data, active means inhibition above about 31%; inactive means the rest.
The following compounds are listed with their measured inhibition values.

Some entries whose results are on file:
CC(=O)Nc1ccc(NC(=O)Cn2cc3c(n2)CCC(C)C3)cc1 (stereo unspecified) ... -8.24% (inactive)
N#C/C(=C(/O)COC(=O)CCC1CCCCC1)c1nc2ccccc2[nH]1 ... -4.8% (inactive)

Prompt: Please report the recorded inhibition for Fc1ccc(C(c2ccc(F)cc2)N2CCN(C/C=C/c3ccccc3)CC2)cc1 .
Response: 3.38% (inactive)

Prompt: Please report the recorded inhibition for O=C(Nc1ccc(F)cc1)N(CCCN1CCOCC1)Cc1cc2cc3c(cc2[nH]c1=O)OCO3 .
Response: -7.97% (inactive)

Prompt: Please report the recorded inhibition for COc1cc(Nc2cc(C)nc3ncnn23)cc(OC)c1OC .
Response: 1.6% (inactive)

Prompt: Please report the recorded inhibition for O=C(Nc1ccc(-c2nc3ncccc3o2)cc1)c1ccc(Br)o1 .
Response: -2.13% (inactive)

Prompt: Please report the recorded inhibition for Cc1ccc(/C=c2\s/c(=C(/C#N)C(=O)N3CCCC3)n(Cc3ccco3)c2=O)s1 .
Response: -1.95% (inactive)

Prompt: Please report the recorded inhibition for FC(F)(F)C(F)(F)C(F)(F)c1nnc2ccc(N3CCOCC3)nn12 .
Response: 4.21% (inactive)

Prompt: Please report the recorded inhibition for O=C(c1nn2cccnc2c1Cl)N1CCN(c2ccccc2)CC1 .
Response: -6.99% (inactive)

Prompt: Please report the recorded inhibition for CC1CCN(CCc2nc3cc(NS(=O)(=O)c4ccc(F)cc4)ccc3n2C)CC1 .
Response: -2.33% (inactive)

Prompt: Please report the recorded inhibition for O=C(CCNNC(=O)c1ccncc1)NCc1ccccc1 .
Response: -7.53% (inactive)

====

- test: growth suppression of yeast trafficking mutant, preliminary HTS, modulators of trafficking downstream of Golgi apparatus project, 1536-format plate, OD 615 nm (AID 637)
- condition notes: yeast transport mutant growth, absorbance 615 nm, 18 h; stronger effect = higher value
measurement label: inhibition (%)
// units = %; emit number, no label

Some entries whose results are on file:
CC(=O)OCC(=O)[C@@]1(OC(C)=O)[C@@H](C)C[C@H]2[C@@H]3C[C@H](F)C4=CC(=O)C=C[C@]4(C)[C@@]3(F)[C@@H](O)C[C@@]21C ... 7.33
O=C(c1ccc(S(=O)(=O)N2CCC(c3nc4ccccc4s3)CC2)cc1)N1CCOCC1 ... 3.64
Cc1cnc(C(=O)NCCc2ccc(S(=O)(=O)NC(=O)NC3CCCCC3)cc2)cn1 ... 2
CC(C)(Oc1ccc(CCNC(=O)c2ccc(Cl)cc2)cc1)C(=O)O ... -0.67
N#C/C(C(=O)NCc1ccco1)=C1/SC(Cc2ccc(F)cc2)C(=O)N1c1ccccc1 (centres undefined) ... -1.64
COc1ccc(-c2ccc(-c3noc(-c4ccccc4)n3)c(OC)n2)cc1 ... -10.2
Cc1nc(NC2=NCN(CCN3CCOCC3)CN2)nc2c(C)cccc12 ... -7.33
O=C(CN1C(=O)CCS(=O)(=O)c2ccccc21)Nc1cccc(F)c1 ... -1.09

Read the next record carefully.
Prompt: Please report the recorded inhibition for CSc1nc(N)nc(SCCS(=O)(=O)c2ccc(Cl)cc2)c1C#N .
Response: -3.65

====

- test: growth inhibitors of H69AR lung tumor, primary screen, human, duplicate replicates (AID 580);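 further: 100% = mean luminescence of untreated wells and 0% = no signal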
- condition notes: H69AR lung tumor cells viability, ATP luminescence, 72 h; at 10 µM
Active and inactive are the calls of the source.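 Rule for the calls: active = viability at or under a set limit in both replicates, limit being median viability minus 3 SD (cut at about 48% in these data, passing the limit was not always enough); inconclusive = at or under the limit in just one replicate; inactive = at or above the limit in both replicates.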
Returns: one label drawn from y (active), n (inactive)

Solved cases (3 shown):
CC1C/C=C/C=C/C=C/C=C/C(O[C@@H]2O[C@H](C)[C@@H](O)[C@H](N)[C@@H]2O)CC2OC(O)(CC(O)CC3OC3/C=C/C(=O)O1)CC(O)C2C(=O)O (some centres undefined) ... n
CC(C)OP(=O)(c1ccc(N(C)C)cc1)C(O)c1ccccc1F (centres undefined) ... n
Cc1cccc(-n2c(=O)cc(N3CCN(c4ccc(F)cc4)CC3)[nH]c2=O)c1 ... n

Prompt: Could you kindly confirm the outcome this assay logged for O=C1CC(Cc2ccccc2)C(=O)N1CCc1ccc2c(c1)OCO2 (centres undefined) ?
Response: n

Prompt: Could you kindly confirm the outcome this assay logged for CCn1cc(C(=O)OCc2ccc(F)cc2)c(=O)c2ccc(C)nc21 ?
Response: n

Prompt: Could you kindly confirm the outcome this assay logged for COc1cccc(OC)c1C(=O)Nc1ccccc1N1CCCC1 ?
Response: n

====

- test: reversal of MRP1-mediated doxorubicin resistance, pilot screen, H69AR cells, doxorubicin co-treatment (AID 601)
- condition notes: H69AR cells, CellTiter-Glo, 72 h; compound alone cytotoxicity; at 10 µM
The following molecules are listed with their measured viability values.
// units = %; emit number, no label

Some entries whose results are on file:
COc1ccc(NC(=O)N(C2CCCCC2)C2CCN(C(C)C)CC2)c(OC)c1 ... 103
CCOc1ccc(-c2nc(C#N)c(N3CCN(C)CC3)o2)cc1 ... 97.6
CN(c1ccccc1C(=O)N1CCN(c2cccc(Cl)c2)CC1)S(C)(=O)=O ... 93.8
Clc1ccc(C2Nc3ccccc3-n3cccc32)cc1 (configuration not stated) ... 66.7
CNc1nnc(-c2cccc(N(C)C)c2)s1 ... 92
Cc1ccc(S(=O)(=O)NC(=O)NN2CCCCCC2)cc1 ... 114
Cc1onc(-c2ccccc2)c1C(=O)N1CCN(C(=O)c2ccco2)CC1 ... 88.4
CC1(C)NC(=O)N(CN2C(=O)NC(C)(C)C2=O)C1=O ... 102
COC(=O)c1ccc(-c2ccco2)n1Cc1nc(-c2ccc(OC)c(OC)c2)oc1C ... 48.8
Nc1nnc(SCc2cc3c(cc2Cl)OCO3)s1 ... 99.7

Prompt: Please report the recorded viability for CCN(CCCc1ccccc1)CCCc1ccccc1 .
Response: 78.6

Prompt: Please report the recorded viability for O=C(O)c1ccccc1C(=O)Nc1ccccc1 .
Response: 105

====

The following compounds are listed with their measured viability values.
- test: growth inhibitors of H69AR lung tumor, primary screen, human, duplicate replicates (AID 580);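 further: 100% = mean luminescence of untreated wells and 0% = no signal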
- condition notes: H69AR lung tumor cells viability, ATP luminescence, 72 h; at 10 µM; stronger effect = lower value
// units = %; emit number, no label

Some entries whose results are on file:
Cc1ccc(-n2c(C)cc3c2CCCC3=O)cc1 ... 93.3
CC1Cc2ccccc2N1C(=O)c1cnsn1 (stereo not given) ... 97.8
O=C(Nc1cccc(OCC(=O)N2CCOCC2)c1)C1CCCCC1 ... 112
CCCCc1cc(=O)oc2c(CN3CCCC3)c(O)c(Cl)cc12 ... 96.6
COCC(=O)Nc1cc(OC)ccc1OC ... 102

Prompt: Please report the recorded viability for CCOc1ccc(OCc2cccc(C(=O)N3CCCC3)c2)cc1 .
Response: 92.9

Prompt: Please report the recorded viability for O=C1CCCc2nc(N3CCCCC3)sc21 .
Response: 82.8

Prompt: Please report the recorded viability for CCCc1cc(=O)[nH]c(=S)[nH]1 .
Response: 84

Prompt: Please report the recorded viability for CCOc1cccc(C(=O)N(Cc2ccco2)C2CCS(=O)(=O)C2)c1 (stereo not given) .
Response: 97.6

Prompt: Please report the recorded viability for CC(C)Cc1nc(N2CCN(C(=O)c3ccco3)CC2)c(C#N)c2c1CCC2 .
Response: 84.5

Prompt: Please report the recorded viability for Cc1nc2sc(C(c3cccc(F)c3)N3CCN(C(=O)c4ccco4)CC3)c(O)n2n1 (stereo not given) .
Response: 99.3

====

- test: reversal of MRP1-mediated doxorubicin resistance, pilot screen, H69AR cells, doxorubicin co-treatment (AID 601)
- condition notes: H69AR cells, CellTiter-Glo, 72 h; compound alone cytotoxicity; at 10 µM
The following compounds are listed with their measured viability values.
// units = %; emit number, no label

O=C(CSCc1cccs1)N1CCCC1 ... 104
C/C=C(\CS(=O)(=O)c1ccccc1)S(=O)(=O)c1ccccc1 ... 6.84
CC(=O)OCC(=O)[C@@]1(O)CC[C@H]2[C@@H]3CCC4=CC(=O)CC[C@]4(C)[C@H]3[C@@H](O)C[C@@]21C ... 100
CCc1ccccc1NC(=O)CSC1=C(C#N)C(c2ccc(O)c(OC)c2)C2=C(CCCC2=O)N1 (stereo not drawn) ... 47.9
CCOc1nc(-c2ccncc2)nc2ccccc12 ... 92.6
Cc1ccc2nc(NC(=O)C3CCN(S(=O)(=O)c4cccc5nsnc45)CC3)sc2c1 ... 65.8

Prompt: Please report the recorded viability for Cc1nnc2ccc(N3CCC4(CC3)OCCO4)nn12 .
Response: 108

Prompt: Please report the recorded viability for CN(CC(=O)O)S(=O)(=O)c1cc(Cl)ccc1Cl .
Response: 96.8

Prompt: Please report the recorded viability for CC(Sc1nnc(-c2cc3ccccc3o2)n1-c1ccccc1)C(=O)O (stereo not drawn) .
Response: 95.1

Prompt: Please report the recorded viability for Cc1nnc(SCCn2c(Br)nc3c2c(=O)n(C)c(=O)n3C)s1 .
Response: 98.2
